target: Cytochrome P450 3A4 (Homo sapiens); experiment: Cytochrome panel assay with activity outcomes; conditions: recombinant CYP, pro-luciferin dealkylation, luminescence, p450-cyp3a4; series mostly up to 57.1 µM; for activity, negative = inhibition: % is set by controls: 0 for no effect and ±100 for the full control effect
The campaign covered roughly 16,000 compounds. About 5,100 (32%) were called active. Not shown: some 25% with an inconclusive outcome. The list shows a part of the results.
assay-metric: activity, negative = inhibition

Solved cases (9 shown):
>  <compound>
CCCC[N+]12CCC(CC1)C(C(=O)c1cccs1)C2 (stereo not given)

>  <activity, negative = inhibition>
inactive

$$$$
>  <compound>
Nc1nc(N)c(N=Nc2ccc([As](=O)(O)O)cc2)c(=O)[nH]1

>  <activity, negative = inhibition>
8.58% [at 11.4 µM] (inactive)

$$$$
>  <compound>
COc1cc(C(=O)OC2C[C@H]3CC[C@@H](C2)N3C)ccc1O (stereo not given in full)

>  <activity, negative = inhibition>
inactive

$$$$
>  <compound>
CCC1(CC)C(=O)C=CNC1=O

>  <activity, negative = inhibition>
inactive

$$$$
>  <compound>
CCN1C[C@@]2(COC)CC[C@H](OC)[C@]34[C@@H]1[C@]1(OCO[C@@]15C[C@@H](OC)C1C[C@H]3[C@H]5[C@@H]1OC)[C@H](O)[C@@H]24

>  <activity, negative = inhibition>
inactive

$$$$
>  <compound>
CCCN(CCC)[C@@H]1CCc2cccc(O)c2C1

>  <activity, negative = inhibition>
inactive

$$$$
>  <compound>
CCN1CCN(S(=O)(=O)c2ccc(Cl)nc2)CC1

>  <activity, negative = inhibition>
inactive

$$$$
>  <compound>
C[C@]12CC[C@@H]3[C@H](CCC4=CC(=O)CC[C@]43C)[C@]1(O)CC[C@@]2(O)C(=O)CO

>  <activity, negative = inhibition>
-0.348% [at 11.4 µM] (inactive)

$$$$
>  <compound>
NC(=O)c1ccc(C(=O)Nc2ccc([As](=O)(O)O)cc2)cc1

>  <activity, negative = inhibition>
8.53% [at 11.4 µM] (inactive)

$$$$

Proceed to the following item.
Entry COc1ccc2c(c1)CCC1C2CC[C@]2(C)[C@H](NCCCCCCN3C(=O)C=CC3=O)CC[C@@H]12 (stereo not given in full) , activity, negative = inhibition reported as inactive

* * *

Consider the following compounds; for each one, report its AC50.
target: Cytochrome P450 3A4 (Homo sapiens) (UniProt P08684); experiment: Cytochrome panel assay with activity outcomes; conditions: recombinant CYP, pro-luciferin dealkylation, luminescence, p450-cyp3a4; series mostly up to 57.1 µM
Sequence (P08684 whole entry, looked up): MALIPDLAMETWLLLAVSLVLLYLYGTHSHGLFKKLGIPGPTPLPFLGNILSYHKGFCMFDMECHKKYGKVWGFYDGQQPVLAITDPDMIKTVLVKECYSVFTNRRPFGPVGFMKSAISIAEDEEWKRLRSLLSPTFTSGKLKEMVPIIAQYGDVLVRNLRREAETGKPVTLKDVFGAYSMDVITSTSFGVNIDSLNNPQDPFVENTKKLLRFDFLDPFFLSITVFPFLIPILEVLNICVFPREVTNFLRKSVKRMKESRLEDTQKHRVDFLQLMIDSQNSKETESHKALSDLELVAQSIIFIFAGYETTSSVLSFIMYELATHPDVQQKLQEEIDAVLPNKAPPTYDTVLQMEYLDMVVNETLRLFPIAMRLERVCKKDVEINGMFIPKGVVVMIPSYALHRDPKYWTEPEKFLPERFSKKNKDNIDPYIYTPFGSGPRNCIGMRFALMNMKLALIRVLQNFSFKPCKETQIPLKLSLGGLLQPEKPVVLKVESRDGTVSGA
Screen size: about 16,000 compounds; about 5,100 (32%) were called active. About 25% were inconclusive and are not listed. The list shows a part of the results.

Solved cases (5 shown):
>  <compound>
COC(=O)C[C@](O)(CCCC(C)(C)O)C(=O)O[C@@H]1C(OC)=C[C@]23CCCN2CCc2cc4c(cc2[C@H]13)OCO4

>  <AC50>
12.6 µM (active)

$$$$
>  <compound>
CC(C)CN1CC[C@@]2(CCCN(C(=O)Oc3ccccc3)C2)C1

>  <AC50>
12.6 µM (active)

$$$$
>  <compound>
CC1(C)CCC2=C(O1)c1ccccc1C(=O)C2=O

>  <AC50>
15.8 µM (active)

$$$$
>  <compound>
Cn1c(O)c(C(c2ccccn2)c2c(O)n(C)c(=S)n(C)c2=O)c(=O)n(C)c1=S

>  <AC50>
0.794 µM (active)

$$$$
>  <compound>
CN1CC[C@@]2(CCCN(C(=O)Oc3ccccc3)C2)C1

>  <AC50>
12.6 µM (active)

$$$$

Hey, quick one: what's AC50 for each of these?
1. COc1ccc(Cn2c(N)c(C(=O)NCc3ccco3)c3nc4ccccc4nc32)cc1
2. CCC1C(=O)OCC1Cc1cncn1C (stereo not given)
3. Cc1ccc(S(=O)(=O)NCC2CCC(C(=O)N3CCC4(CC3)OCCO4)CC2)cc1 (stereo not given)
4. N#Cc1ccc(CN2CC[C@@]3(CCCN(C(=O)Oc4ccccc4)C3)C2)cc1
5. O=C(Oc1ccccc1)N1CCC[C@@]2(CCN(C(c3ccccc3)c3ccccc3)C2)C1

Solution:
11.2 µM (active)
15.8 µM (active)
15.8 µM (active)
7.94 µM (active)
10 µM (active)

* * *

Consider the following compounds; for each one, report its AC50.
molecular target: Cytochrome P450 3A4 (Homo sapiens); assay: Cytochrome panel assay with activity outcomes; details: recombinant CYP, pro-luciferin dealkylation, luminescence, p450-cyp3a4; series mostly up to 57.1 µM
About 5,100 (32%) of roughly 16,000 compounds were called active. Not shown: some 25% with an inconclusive outcome. Some of the results follow.

Solved cases (5 shown):
>  <compound>
O=C1c2ccccc2-c2cc([N+](=O)[O-])c([N+](=O)[O-])cc21

>  <AC50>
0.501 µM (active)

$$$$
>  <compound>
O=P(Nc1c(Cl)cccc1Cl)(c1ccccc1)c1nc2c(s1)CCCC2 (stereo not given)

>  <AC50>
11.2 µM (active)

$$$$
>  <compound>
COC(=O)NC/C=C\c1nc(CC/C=C\C(=O)O[C@H]2C[C@H]3CC(=O)O[C@@H](/C=C\CC(C)C)C[C@@H]4CC[C@H](C)[C@H](C[C@@H](OC)C[C@H](C2)O3)O4)co1

>  <AC50>
5.01 µM (active)

$$$$
>  <compound>
COc1ccc(CNC(=O)/C=C\c2ccc3[nH]cc(CCN(C)C)c3c2)cc1

>  <AC50>
15.8 µM (active)

$$$$
>  <compound>
C=C(CC1(CNP(=O)(c2ccccc2)c2ccccc2)CC1)c1ccccc1

>  <AC50>
3.98 µM (active)

$$$$

Hey, quick one: what's AC50 for each of these?
1. Cc1ccc2c(c1)N(CCC(=O)N1CCC3(CC1)OCCO3)C(=O)C(C)O2 (stereo not given)
2. O=C(NC1CCCCC1)NC1CC2CCC(C1)N2Cc1nnnn1Cc1ccc2c(c1)OCO2 (stereo not given)
3. Cc1c2ccncc2c(C)c2c1[nH]c1ccccc12
4. CC(O)(CS(=O)(=O)c1cccc(C(F)(F)F)c1)C(=O)Nc1cccc(C(F)(F)F)c1 (stereo not given)
5. O=C(c1ccc(-c2nnc(Nc3ccccc3)c3ccccc23)cc1)N1C[C@H]2C[C@H](C1)c1cccc(=O)n1C2
6. CC(O)(CS(=O)(=O)c1cccc(C(F)(F)F)c1)C(=O)Nc1ccc(C(F)(F)F)cc1 (stereo not given)
7. CS(=O)(=O)Nc1ccc(Cc2noc(-c3ccc4[nH]cc(CCN)c4c3)n2)cc1

Solution:
1. 2 µM (active)
2. 3.16 µM (active)
3. 0.158 µM (active)
4. 1.41 µM (active)
5. 31.6 µM (active)
6. 1.41 µM (active)
7. 15.8 µM (active)

Hey, quick one: what's AC50 for each of these?
1. COc1ccc(C2NCc3ccc4c(c3-n3cccc32)OCO4)cc1OC (stereo not given)
2. CCCCC1(CCCC)C(=O)NC(=Nc2cccc(C)c2)NC1=O
3. Oc1ccc(-c2nc(-c3ccc(F)cc3)c(-c3ccncc3)[nH]2)cc1

Solution:
1: 5.01 µM (active); 2: 12.6 µM (active); 3: 0.501 µM (active)

Hey, quick one: what's AC50 for each of these?
1. CC(C)c1c(CN(C)[C@@H](C)Cc2ccccc2)n(C)n(-c2ccccc2)c1=O
2. Cc1c(C(=O)c2ccc3ccccc3c2)c2cccc3c2n1[C@H](CN1CCOCC1)CO3
3. CC(C)C12CN3CC(C(C)C)(CN(C1)C3c1cccnc1)C2=O (stereo not given)
4. Nc1ccc(S(=O)(=O)c2ccc(NCN3C(=O)NC(=O)C(=O)C3=O)cc2)cc1
5. COc1ccc(CCNc2cc(-c3ccccc3)nc3ncnn23)cc1

Solution:
3.98 µM (active)
7.94 µM (active)
2.24 µM (active)
2 µM (active)
5.62 µM (active)

* * *

target: Cytochrome P450 3A4 (Homo sapiens) (UniProt P08684); experiment: Cytochrome panel assay with activity outcomes; settings: recombinant CYP, pro-luciferin dealkylation, luminescence, p450-cyp3a4; series mostly up to 57.1 µM; for activity, negative = inhibition: % is set by controls: 0 for no effect and ±100 for the full control effect
In all, about 16,000 compounds went through this assay and about 5,100 (32%) were called active. Roughly 25% stayed inconclusive and do not appear here. The list shows a part of the results.
assay-metric: activity, negative = inhibition

>  <compound>
CCC1(CCSC(=N)N)C(=O)NC(=O)NC1=O

>  <val>
-21.7% [at 11.4 µM] (inactive)

$$$$
>  <compound>
CC(N)Cc1ccccc1Sc1ccc(O)cc1 (stereo unspecified)

>  <val>
13.2% [at 2.29 µM] (inactive)

$$$$
>  <compound>
Cc1ccc(S(=O)ON2CCC(C(=O)O)(c3ccccc3)CC2)cc1 (stereo unspecified)

>  <val>
-0.254% [at 11.4 µM] (inactive)

$$$$
>  <compound>
Oc1ccc2c3c1O[C@H]1c4[nH]c5c(c4C[C@@]4(O)[C@@H](C2)N(CC2CC2)CC[C@]314)C[C@]1(O)[C@H]2Cc3ccc(O)c4c3[C@@]1(CCN2CC1CC1)[C@@H]5O4

>  <val>
inactive

$$$$
>  <compound>
COc1cc2cc(c1Cl)N(C)C(=O)C[C@H](OC(=O)C(C)C)[C@]1(C)O[C@@H]1[C@@H](C)[C@H]1C[C@](O)(NC(=O)O1)[C@@H](OC)/C=C\C=C(\C)C2

>  <val>
-29.4% [at 11.4 µM] (inactive)

$$$$
>  <compound>
COc1ccc2[nH]cc(CCN(C)C)c2c1

>  <val>
inactive

$$$$
>  <compound>
CC(C)CNCCc1ccccn1

>  <val>
-8.38% [at 11.4 µM] (inactive)

$$$$
>  <compound>
COC(=O)C1=CCCN(C)C1

>  <val>
inactive

$$$$
>  <compound>
Oc1ccc([C@H](O)[C@@H]2CCCCN2)cc1O

>  <val>
-7.28% [at 11.4 µM] (inactive)

$$$$
>  <compound>
c1csc(CN2CC[C@@]3(CCCNC3)C2)n1

>  <val>
inactive

$$$$

Hey, quick one: what's activity, negative = inhibition for each of these?
1. O=C(Oc1ccccc1)N1CCC2(CCCN(C(c3ccccc3)c3ccccc3)C2)CC1
2. CN1C2CCC1CC(OC(=O)c1ccc(Cl)cc1)C2 (stereo unspecified)
3. NCCCN1CCN(c2ccccc2)CC1
4. Cc1ccc(NC(=[OH+])c2cc3ccccc3cc2O)c(C)c1.Cc1ccc(NC(=[OH+])c2cc3ccccc3cc2O)c(C)c1.[Ni]
5. COc1ccccc1N1CCNCC1
6. CCCC(=O)Nc1ccc(N2CCN(CC)CC2)c(Cl)c1

Solution:
1. inactive
2. inactive
3. -17.3% [at 11.4 µM] (inactive)
4. -23% [at 11.4 µM] (inactive)
5. inactive
6. inactive

Hey, quick one: what's activity, negative = inhibition for each of these?
1. CC(C)[N+](C)(CCC(C(N)=O)(c1ccccc1)c1ccccc1)C(C)C
2. O=C(O)CCCc1ccc(N(CCCl)CCCl)cc1
3. CC(Oc1ccc(-c2ccccc2)cc1)C(=O)O (stereo unspecified)
4. C[C@@]12CC[C@H](O)C[C@@H]1CC[C@@H]1[C@@H]2CC[C@@]2(C)[C@@H](C3=CC(=O)OC3)[C@H](O)C[C@]12O
5. COC(=O)N1CCC2(CCCN(C)C2)CC1
6. CCOC(=O)[C@@H]1[C@@H]2c3ccccc3-c3ccccc3[C@H]2C[C@H]1O
7. COC(=O)[C@@H](N)CCCN=C(N)N[N+](=O)[O-]

Solution:
inactive
inactive
4.5% [at 11.4 µM] (inactive)
-21.4% [at 11.4 µM] (inactive)
inactive
-1.52% [at 11.4 µM] (inactive)
inactive

Hey, quick one: what's activity, negative = inhibition for each of these?
1. COC(=O)N1CCC2(CCN(CC(C)C)CC2)CC1
2. O=C(Oc1ccc([N+](=O)[O-])cc1)N1CCC(N2CCCCC2)CC1
3. Clc1cnc(Oc2ccc(Oc3ncc(Cl)cc3Cl)cc2)c(Cl)c1
4. CNC(C)Cc1ccccc1Sc1ccc(O)cc1 (stereo unspecified)

Solution:
["inactive", "inactive", "inactive", "-6.72% [at 2.29 µM] (inactive)"]

Hey, quick one: what's activity, negative = inhibition for each of these?
1. CN1CCC2(CC1)CCN(C(=O)Oc1ccccc1)CC2
2. c1ccc(C2CC2)c(OCC2=NCCN2)c1
3. CCNC(=S)NC1CC2CCCC(C1)N2Cc1ccco1 (stereo unspecified)
4. NP(N)(=O)NC(=O)c1ccc(F)cc1
5. CC(C)CN1CC2(CCN(C(=O)c3ccncc3)CC2)C1
6. C1C[C@@H]2CN(CCCN3CCOCC3)[C@@H](C1)O2

Solution:
["inactive", "inactive", "-6.93% [at 2.29 µM] (inactive)", "inactive", "inactive", "-5.91% [at 11.4 µM] (inactive)"]
